- subject_of_test: Discoidin domain-containing receptor 2 (Homo sapiens) (UniProt Q16832)
- Sequence (whole entry): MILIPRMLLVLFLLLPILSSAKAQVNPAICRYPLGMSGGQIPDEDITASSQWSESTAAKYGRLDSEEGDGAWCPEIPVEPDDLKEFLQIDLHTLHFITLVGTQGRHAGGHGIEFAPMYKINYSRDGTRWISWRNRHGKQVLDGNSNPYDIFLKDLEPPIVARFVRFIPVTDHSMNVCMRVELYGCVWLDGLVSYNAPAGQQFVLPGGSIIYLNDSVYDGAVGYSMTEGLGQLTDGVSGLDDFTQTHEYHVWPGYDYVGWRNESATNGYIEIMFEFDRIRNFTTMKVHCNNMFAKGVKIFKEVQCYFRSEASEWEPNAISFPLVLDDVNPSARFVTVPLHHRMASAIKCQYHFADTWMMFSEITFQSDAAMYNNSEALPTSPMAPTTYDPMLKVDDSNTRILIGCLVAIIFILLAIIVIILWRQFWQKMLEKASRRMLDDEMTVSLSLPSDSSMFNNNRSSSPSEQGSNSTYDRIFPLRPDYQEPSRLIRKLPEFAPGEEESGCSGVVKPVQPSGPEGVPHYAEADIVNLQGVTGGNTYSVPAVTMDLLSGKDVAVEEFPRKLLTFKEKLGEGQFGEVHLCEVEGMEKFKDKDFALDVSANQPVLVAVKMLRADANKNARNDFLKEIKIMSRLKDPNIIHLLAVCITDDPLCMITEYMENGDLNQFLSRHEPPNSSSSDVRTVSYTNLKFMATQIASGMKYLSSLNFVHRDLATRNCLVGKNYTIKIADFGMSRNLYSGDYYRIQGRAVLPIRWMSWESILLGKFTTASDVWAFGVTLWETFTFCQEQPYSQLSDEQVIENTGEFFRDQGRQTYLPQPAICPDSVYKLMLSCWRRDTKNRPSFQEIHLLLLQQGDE
- test_context: at 0.1 µM;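 note: reported values are mean percent inhibition of DDR2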
Property: inhibition; scope: individual compounds
Expressed in %, but write only the number.

Consider the following illustrative entries.
N#Cc1c(NC(=O)c2ccccc2F)sc2c1CCCC2 -1.61
NS(=O)(=O)c1ccc(Nc2cc(-c3cccc(O)c3)n[nH]2)cc1 2.49
Cc1ccc(O)cc1Nc1ccnc2ccc(S(C)(=O)=O)cc12 59.8

Continue with the compound presented below.
Memo: "NS(=O)(=O)c1ccc(N/N=C2\C(=O)Nc3ccc(Cl)cc32)cc1" , reported inhibition: 0.3
